- Tested target: BRD9-GFP (Homo sapiens)
- Construct: CHYSEL (2A cis-acting hydrolase element) remnant after GFP; mCherry is split off as a separate protein (C); expressed in transfected cells; host or cells: HEK293A cells (Invitrogen R70507), lentiviral transduction with pLenti6-BRD9-GFP-CHYSEL-mCherry, blasticidin selection
- Sequence (Q9H8M2 whole entry): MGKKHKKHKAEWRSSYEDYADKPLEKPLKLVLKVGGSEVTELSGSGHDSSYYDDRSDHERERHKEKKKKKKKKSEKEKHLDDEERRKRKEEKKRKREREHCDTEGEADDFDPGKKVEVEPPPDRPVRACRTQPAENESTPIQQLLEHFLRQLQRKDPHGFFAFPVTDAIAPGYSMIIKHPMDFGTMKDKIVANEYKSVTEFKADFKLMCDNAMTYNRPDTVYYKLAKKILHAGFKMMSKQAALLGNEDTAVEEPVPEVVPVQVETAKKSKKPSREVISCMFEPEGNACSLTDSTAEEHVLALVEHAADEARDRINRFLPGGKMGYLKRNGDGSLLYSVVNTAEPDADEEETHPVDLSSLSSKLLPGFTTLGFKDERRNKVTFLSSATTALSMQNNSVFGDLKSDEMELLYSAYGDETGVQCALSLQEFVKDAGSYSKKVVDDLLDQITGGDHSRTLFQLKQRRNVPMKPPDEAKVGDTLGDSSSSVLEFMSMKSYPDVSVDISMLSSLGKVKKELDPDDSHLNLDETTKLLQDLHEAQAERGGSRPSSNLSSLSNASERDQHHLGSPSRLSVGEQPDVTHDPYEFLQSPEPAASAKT
- Measurement notes: BRD9-GFP protein abundance flow cytometry assay in HEK293A cells
- Type: cell-based
- Condition label: HEK293A-BRD9-GFP-CHYSEL-mCherry cells, 24 h; % protein remaining at the concentration at which maximum degradation is seen
Value kind: BRD9 Deg Amax % (%)
Reply with just the number (in %).

Worked examples follow.
{"columns": ["Compound", "Reported result"],
 "data": [
  ["COc1ccc(C(=O)N2CCC(OC3CCN(CCc4c(OC)cc(-c5cn(C)c(=O)c6cnccc56)cc4OC)CC3)CC2)cc1N1CCC(=O)NC1=O [Compound A32]", 16.20],
  ["CCCCn1cc(-c2ccc(CN3CCC(OC4CCN(C(=O)c5ccc(OC)c(N6CCC(=O)NC6=O)c5)CC4)CC3)cc2)c2ccncc2c1=O [Compound E13]", 13.06],
  ["COc1ccc(C(=O)N2CCC(OC3CCN(Cc4c(OC)cc(-c5cn(C)c(=O)c6cnccc56)cc4OC)CC3)CC2)cc1N1CCC(=O)NC1=O [Compound A42]", 13.53],
  ["CCCCn1cc(-c2ccc(O[C@H]3CCN(CC4CCN(C(=O)c5ccc(OC)c(N6CCC(=O)NC6=O)c5)CC4)C[C@@H]3F)c(F)c2)c2ccncc2c1=O [Compound E16]", 16.58],
  ["CCCCn1cc(-c2cc(OC)c(CCN3CC[C@@H](OC4CCN(C(=O)c5ccc(Cl)c(N6CCC(=O)NC6=O)c5)CC4)[C@H](F)C3)cc2OC)c2ccncc2c1=O [Compound E47]", 32.89]
]}

Look up and report measured BRD9 Deg Amax % for this entry: COc1cc(-c2cn(C)c(=O)c3cnccc23)c(OC)cc1CN1CCC(OC2CCN(C(=O)c3ccc(C)c(N4CCC(=O)NC4=O)c3)CC2)CC1 [Compound A29]
15.75

Entry CCCCCCn1cc(-c2cc(OC)c(CN3CCC(OC4CCN(C(=O)c5ccc(OC)c(N6CCC(=O)NC6=O)c5)CC4)CC3)c(OC)c2)c2ccncc2c1=O [Compound E40] needs its BRD9 Deg Amax % filled in; supply it.
10.51

Give a short answer stating reported BRD9 Deg Amax % for COc1cc(-c2cn(C)c(=O)c3cnccc23)c(OC)cc1CN1CCC(OC2CCN(C(=O)c3ccc(Cl)c(N4CCC(=O)NC4=O)c3)CC2)CC1 [Compound A30] .
13.99

Quick one: give measured BRD9 Deg Amax % for CCCCn1cc(-c2cc(OC)c(OCC3CCN(CC4CCN(C(=O)c5ccc(Cl)c(N6CCC(=O)NC6=O)c5)CC4)CC3)c(OC)c2)c2ccncc2c1=O [Compound B8]
17.89

Data provenance: patent US20220315578A1
